The reader will find reported pIC50 values listed item by item below.
tested on: NCI-H522; assay: Cell viability assay, NCI-H522; format: cell-based; details: Homo sapiens, 72 h; NCI-H522, NSCLC, 3 days; read-out: Cellular Anti-proliferation activity (IC50)
Convention used: pIC50 is expressed as -log10 of the molar concentration.

1. CC(=O)c1c(C)c2cnc(Nc3ccc(N4CCN(CC(=O)NCCOCCOCCOCCOCCOCCNc5ccc(C(=O)Nc6nc(C)c(C)s6)c(C)c5)CC4)cn3)nc2n(C2CCCC2)c1=O
6.81

// below: pIC50 requested for another compound
pIC50 for CC(=O)c1c(C)c2cnc(Nc3ccc(N4CCN(CC(=O)NCCOCCOCCOCCOCCOCCNc5ccc(C(=O)Nc6ncc(C)s6)c(C)c5)CC4)cn3)nc2n(C2CCCC2)c1=O ?
6.20
